Provide the reported Enzyme Activity Endpoint Assay: IgG of each item.
biological target: pooled human IgG
Give a bare numeral; the unit ng/µL is implied.

Q) Suppose we examine the protein PRT-49 (protein) MANQEIRYSEVTPYHVTSVWTKGVTPPANFTQGEDVFHAPYVANQGWYDITKTFNGKDDLLCGAATAGNMLHWWFDQNKDYIDRYLEEHPEKAKINFNGEQMFDVKEAIDTKNDQTDSKLFEYFKEKAFPYLSTKHLGVFPDHVIDMFINGYRLSLTNHGPTPVKEGSKDPRGGFFDDVFGRGDQSKLLTSRHDFKEKNLKEISDLIKKELTEGKALGLSHTYANVRINHVINLWGADFDSNGNLKAIYVTDSDSNASVGMKKYFVGVNSAGKVAISAKEIKEDNIGAQVLGLFTLSTGQDSWNQTN ; what Enzyme Activity Endpoint Assay: IgG value has been reported?
A) 18

Q) So what's the measured Enzyme Activity Endpoint Assay: IgG for this one? PRT-535 (protein) MANQEIRYSGDSEWANKKVWVYGITPPEEKAWFYSTYYLPWKKEYGWYDCNKRNPTADGMMCWAATASNLMHWWIAQNKEYIDLYGDKYKGPDKINFNGEQMFDVKEYIDPLDKPQESDIFQCFIDKAFADLSTKHEAGKGDEGINWFIHGIIPSYPAHGPTPVKLRYPYNPAGYFKDVFPRGDGVVLLGNNGDFKELGKERFNETIKDALANKKGIGLSIGPVNVRSSHVVTMWGAEFDENGDVSYIYMADNNDRWGVGCIRYQIVYVEGGTYTCYKTEIIGSDRPIPINRLVTLELGEEYWKQTNLEHHHHHH
A) 1530
